# Test system: RPMI-8226 leukemia
# Test summary: NCI-60 one-dose screen, 48 h (100 = growth as untreated, 0 = no growth, -100 = all killed)
# Stated conditions: 10 µM unless noted
# Method: Growth inhibition of the RPMI-8226 human tumor cell line is measured as a screen for anti-cancer activity. Cells are grown in 96 well plates and exposed to the test compound for 48 hours. Compounds are tested at a single concentration, which is 10^-5 M for most compounds. The reported endpoint is percent growth (GI% or GIPRCNT), where numbers from 0 - 100% represent growth inhibition, and numbers from -100% - 0 represent cell death. For example, a value of 40 represents 60% growth inhibition. […]
This is part of a sample that, as a whole, favours compounds with a hit. Of some 83,000 tested, about 20% had one in any assay.
Property: growth (%)
Report the value in % with no unit label.

compound_string=COc1ccc2c(c1)oc1c(C)c3c(c(C)c12)C(=O)N(CCOS(C)(=O)=O)C3=O property=growth quantitative_result=94

Look up growth: "N#Cc1c(-c2ccc(Br)cc2)nc2c(N=Nc3ccc(S(N)(=O)=O)cc3)c(N)nn2c1N"
-13.6

Tell me the measured growth of "Cc1cccc(-c2nc(C(C)C)sc2-c2ccnc(NCCCNS(=O)(=O)c3ccc(Cl)cc3)c2)c1" , please.
69.2

Quick check: growth of "COc1cc(/C=C/C(=O)N2CCN(C(=O)c3cc(OC)c(OC)c(OC)c3)CC2)ccc1OCCCOc1cc2c(cc1OC)C(=O)N1CCC[C@H]1C=N2" ?
15.2

Could you tell me which growth is on file for "COc1cc(-c2cc(-c3ccc(Nc4nc(Nc5ccc(Cl)cc5)nc(Nc5ccc(Cl)cc5)n4)cc3)no2)cc(OC)c1OC" ?
7.63

Quick check: growth of "COC12C=C/C(=C(/C(=O)OCc3cncnc3)C(=O)CCCCCCCCC3(OC)C=C/C(=C(/C(=O)OCc4cncnc4)C(=O)CCCCCCCC1)O3)O2" ?
-20.1

Which measured growth value corresponds to "NC(=O)c1ccccc1OCC(=O)Nc1ccc(Cl)c(Cl)c1" ?
66.5

// growth lookup, key: "Cn1c(=O)c2[nH]c(SC/C(=N/O)c3ccc(Br)cc3)nc2n(C)c1=O"
59.4
